melting point for assorted compounds

| compound | melting point |
| --- | --- |
| CCCCC1c2cc(NC(=O)CC(C)(C)C)c(C)c(C)c2OC1(C)C (stereo not given) | 129 to 130 °C |
| O=C(O)CCC(F)(F)C(F)(F)CCC(=O)O | 204 °C |
| Cn1c(=O)c2c(ncn2CCCN2CCC(NC(=O)c3ccc(N)cc3)CC2)n(C)c1=O | 203 to 205 °C |
| CCOc1ccc(C23CC2CN(C=O)C3)cc1 (stereo not given) | 48 to 51 °C |
| CNC(=O)c1ccc(OCC(O)CNC(C)COc2ccc(O)c(C(N)=O)c2)cc1 (stereo not given) | 172 to 175 °C |
| CCCCCCn1c2cc(CO)ccc2c2ccc(CO)cc21 | 98 to 99 °C |
| COc1cc(Cc2ccc3nc(N)nc(N)c3c2)cc(OC)c1OC | 219 to 221 °C |
| Cc1c2c(c(Br)n1C)NC(=O)CN=C2c1ccccc1 | 200 to 202 °C |
| CN1C(=O)N(c2c(Cl)cccc2Cl)Cc2cnc(N)nc21 | 176 to 184 °C |
| CC[C@@H](c1ccccc1)N(Cc1ccc(C(=O)O)cn1)S(=O)(=O)c1ccc(Cl)cc1 | 112 to 113 °C |
